subject of test: PAR2 (HT-29 cells) (Homo sapiens, UniProt P55085)
Construct: host or cells: HT-29
test method notes: Ca FLIPR TETRA assay, ANTAGONIST mode, activator 3.1 U/mL trypsin
Type: cell-based
settings: HT-29 cells, activator 3.1 U/mL trypsin; maximal antagonist concentration per Method (A: 0.1, 1 or 2 μM; B: 50 μM)
pIC50: −log10 of the molar value.
property measured: pIC50

[[record]]
compound = "CCC(C)(O)C(=O)N1CCN(C(=O)c2cc3nc(-c4ccc(F)cc4)cc(C4(C)CC4)c3o2)C(C)(C)C1 (stereo not shown)"
val = 7.31

[[record]]
compound = "CC(C)c1nc(-c2ccc(F)cc2)nc2cc(C(=O)N3CCN(C(=O)[C@H](O)CC(C)(C)C)CC3(C)C)oc12"
val = 7.17

[[record]]
compound = "Cc1ncc(C(=O)N2CCN(C(=O)c3cc4nc(-c5ccc(Cl)cc5)cc(C(C)(C)C)c4o3)C(C)(C)C2)[nH]1"
val = 8.64

[[record]]
compound = "COC(=O)c1cccc(N2CCN(C(=O)c3cc4nc(-c5ccc(Cl)c(F)c5)cc(C(C)(C)C)c4o3)C(C)(C)C2)n1"
val = 8.03

[[record]]
compound = "Cc1ncc(C(=O)N2CCN(C(=O)c3cc4nc(-c5ccc(C(F)(F)F)cc5)cc(C(C)(C)C)c4o3)C(C)(C)C2)[nH]1"
val = 8.09

[[record]]
compound = "CC(C)(C)c1cc(-c2ccc(F)cc2)nc2cc(C(=O)N3CCN(c4ccn[nH]4)C(=O)C3(C)C)oc12"
val = 8.03

[[record]]
compound = "CC(C)c1cc(-c2ccc(F)cc2)nc2cc(C(=O)N3CCN(C(=O)C(O)C(C)C)CC3(C)C)oc12 (stereo not shown)"
val = 8.07


----------
Overview of reported pIC50 across a group of compounds:
subject of test: PAR2 (HT-29 cells) (Homo sapiens, UniProt P55085)
Construct: host or cells: HT-29
test method notes: Ca FLIPR TETRA assay, ANTAGONIST mode, activator 8 μM SLIGKV
Assay type: cell-based
settings: HT-29 cells; activator 8 μM SLIGKV; Method A: maximal concentration of antagonist 0.1, 1 or 2 μM
pIC50: −log10 of the molar value.
property measured: pIC50

[[record]]
smiles_str = "CC(C)(C)c1cc(-c2ccc(Cl)c(F)c2)nc2cc(C(=O)N3CCN(c4cccnc4)C(=O)C3(C)C)oc12"
val = 7.70

[[record]]
smiles_str = "COc1ccc(N2CCN(C(=O)c3cc4nc(-c5ccc(Cl)c(F)c5)cc(C(C)(C)C)c4o3)C(C)(C)C2)nc1C(=O)O"
val = 9.70

[[record]]
smiles_str = "CC1(C)CN(C(=O)[C@H]2C[C@@](C)(O)C2)CCN1C(=O)c1cc2nc(-c3ccc(Cl)c(F)c3)cc(C3(C#N)CC(F)(F)C3)c2o1"
val = 8.80

[[record]]
smiles_str = "CC(C)(C)c1cc(-c2ccc(Cl)cc2)nc2cc(C(=O)N3CCN(c4cccc(C(=O)O)n4)CC3(C)C)oc12"
val = 9.70

[[record]]
smiles_str = "CC1(C)CCC(c2cc(C(C)(C)C)c3oc(C(=O)N4CCN(c5ccc(-c6nnn[nH]6)cn5)CC4(C)C)cc3n2)CC1"
val = 8.82


----------
Overview of reported pIC50 across a group of compounds:
subject of test: PAR2 (HT-29 cells) (Homo sapiens, UniProt P55085)
Construct: host or cells: HT-29
test method notes: Ca FLIPR TETRA assay, ANTAGONIST mode, activator 8 μM SLIGKV
Format: cell-based
settings: HT-29 cells, activator 8 μM SLIGKV; maximal antagonist concentration per Method (A: 0.1, 1 or 2 μM; B: 50 μM)
pIC50: −log10 of the molar value.
property measured: pIC50

[[record]]
compound = "Cc1ncc(S(=O)(=O)N2CCN(C(=O)c3cc4nc(-c5ccc(F)cc5)cc(C(C)C)c4o3)C(C)(C)C2)n1C [Example I-145]"
val = 7.40

[[record]]
compound = "CC(C)(C)c1cc(-c2ccc(Cl)cc2)nc2cc(C(=O)N3CCN(c4ccc(C(=O)O)cn4)C(=O)C3(C)C)oc12 [Example I-282]"
val = 8.12

[[record]]
compound = "CC(C)[C@@H](O)C(=O)N1CCN(C(=O)c2cc3nc(-c4ccc(F)cc4)cc(C4(C)CC4)c3o2)C[C@@H]1C [Example I-112]"
val = 7.89


----------
subject of test: PAR2 (HT-29 cells) (Homo sapiens)
Construct: host or cells: HT-29
test method notes: Ca FLIPR TETRA assay, ANTAGONIST mode, activator 3.1 U/mL trypsin
Assay type: cell-based
settings: HT-29 cells; activator 3.1 U/mL trypsin; Method A: maximal concentration of antagonist 0.1, 1 or 2 μM
Overview of reported IC50 across a group of compounds:
property measured: IC50 (nM)

[[record]]
compound = "CC(C)(C)c1cc(N2CCC(C#N)CC2)nc2cc(C(=O)N3CCN(C(=O)[C@H]4C[C@](C)(O)C4)CC3(C)C)oc12 [Example I-438]"
property_measured = "IC50"
val = 420

[[record]]
compound = "COc1nc(N2CCN(C(=O)c3cc4nc(C5CCC(C)(C)CC5)cc(C(C)(C)C)c4o3)C(C)(C)C2)ccc1C(=O)O [Example I-535]"
property_measured = "IC50"
val = 1.2

[[record]]
compound = "CCC(CC)c1cc(-c2ccc(F)cc2)nc2cc(C(=O)N3CCN(c4cn[nH]c4)C(=O)C3(C)C)oc12 [Example I-301]"
property_measured = "IC50"
val = 4

[[record]]
compound = "CC(C)(C)c1cc(-c2ccc(Cl)cc2)nc2cc(C(=O)N3CCN(C(=O)[C@H]4CCS(=O)(=O)N4)CC3(C)C)oc12 [Example I-475]"
property_measured = "IC50"
val = 34

[[record]]
compound = "CC1(C)CCC(c2cc(C(C)(C)C)c3oc(C(=O)N4CCN(c5nccc(C(=O)O)n5)CC4(C)C)cc3n2)CC1 [Example I-455]"
property_measured = "IC50"
val = 2.4


----------
subject of test: PAR2 (HT-29 cells) (Homo sapiens)
Construct: host or cells: HT-29
Sequence (P55085 26-397): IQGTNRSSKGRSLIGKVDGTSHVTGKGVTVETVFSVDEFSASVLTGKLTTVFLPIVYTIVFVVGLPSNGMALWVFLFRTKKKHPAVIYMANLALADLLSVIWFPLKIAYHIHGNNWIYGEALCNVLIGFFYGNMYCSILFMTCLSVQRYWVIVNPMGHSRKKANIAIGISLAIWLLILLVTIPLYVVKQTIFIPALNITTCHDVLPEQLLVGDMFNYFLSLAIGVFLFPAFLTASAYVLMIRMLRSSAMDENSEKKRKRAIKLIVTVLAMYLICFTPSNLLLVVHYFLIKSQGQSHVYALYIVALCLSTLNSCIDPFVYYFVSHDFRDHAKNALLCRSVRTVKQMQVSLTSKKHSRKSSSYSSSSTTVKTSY
test method notes: Ca FLIPR TETRA assay, ANTAGONIST mode, activator 3.1 U/mL trypsin
Assay type: cell-based
settings: HT-29 cells; activator 3.1 U/mL trypsin; Method A: maximal concentration of antagonist 0.1, 1 or 2 μM
pIC50: −log10 of the molar value.
Rule: y for pIC50 not less than 8, n for anything less.

[[record]]
molecule = "CC(C)[C@@H](CC(=O)O)C(=O)N1CCN(C(=O)c2cc3nc(-c4ccc(Cl)c(F)c4)cc(C(C)(C)C)c3o2)C(C)(C)C1"
group = "y"

[[record]]
molecule = "CC(C)[C@@H](CC(=O)N1CCN(C(=O)c2cc3nc(-c4ccc(Cl)cc4)cc(C(C)(C)C)c3o2)C(C)(C)C1)C(=O)O"
group = "y"

[[record]]
molecule = "CC(C)(C)c1cc(-c2ccc(Cl)cc2)nc2cc(C(=O)N3CCN(C(=O)CC4(C(=O)O)CCCC4)CC3(C)C)oc12"
group = "y"

[[record]]
molecule = "CC(C)(C)c1cc(-c2ccc(Cl)c(F)c2)nc2cc(C(=O)N3CCN(c4ccnnc4)CC3(C)C)oc12"
group = "n"

[[record]]
molecule = "Cc1nc(C(=O)O)cnc1N1CCN(C(=O)c2cc3nc(-c4ccc(Cl)cc4)cc(C(C)(C)C)c3o2)C(C)(C)C1"
group = "y"

[[record]]
molecule = "CC(C)(C)c1cc(-c2ccc(Cl)c(F)c2)nc2cc(C(=O)N3CCN(c4nc(-c5ccccc5)ccc4C(=O)O)CC3(C)C)oc12"
group = "y"

[[record]]
molecule = "CC(C)(C)c1cc(-c2ccc(F)cc2)nc2cc(C(=O)N3CCN(C(C)(C)C)C(=O)C3(C)C)oc12"
group = "n"

[[record]]
molecule = "CC(C)(C)c1cc(N2CCC(C(C)(C)O)CC2)nc2cc(C(=O)N3CCN(C(=O)[C@H]4C[C@](C)(O)C4)CC3(C)C)oc12"
group = "n"

[[record]]
molecule = "CC(C)(C)c1cc(-c2ccc(Cl)c(F)c2)nc2cc(C(=O)N3CCN(c4cncc(C(=O)O)n4)CC3(C)C)oc12"
group = "y"

[[record]]
molecule = "CNC1CCN(C(=O)c2cc3nc(-c4ccc(Cl)c(F)c4)cc(C(C)(C)C)c3o2)C(C)(C)C1 (centres unmarked)"
group = "n"

[[record]]
molecule = "CC(C)(C)c1cc(-c2ccc(Cl)cc2)nc2cc(C(=O)N3CCN(c4ncc(-c5nnn[nH]5)cn4)CC3(C)C)oc12"
group = "y"

[[record]]
molecule = "CC(C)(C)c1cc(-c2ccc(Cl)c(F)c2)nc2cc(C(=O)N3CCN(c4ncc(C(=O)O)cc4F)CC3(C)C)oc12"
group = "y"

[[record]]
molecule = "CC(C)(C)c1cc(-c2ccc(Cl)c(F)c2)nc2cc(C(=O)N3CCN(C(=O)CC4(C(=O)O)CCCCC4)CC3(C)C)oc12"
group = "y"

[[record]]
molecule = "CC(C)[C@H](CC(=O)O)C(=O)N1CCN(C(=O)c2cc3nc(-c4ccc(Cl)c(F)c4)cc(C(C)(C)C)c3o2)C(C)(C)C1"
group = "y"

